Listed here: items and their measured Inhibition of PAI-1 in the first S2251 chromogenic substrate assay.
system: PAI-1 (Homo sapiens)
Sequence (P05121 24-402): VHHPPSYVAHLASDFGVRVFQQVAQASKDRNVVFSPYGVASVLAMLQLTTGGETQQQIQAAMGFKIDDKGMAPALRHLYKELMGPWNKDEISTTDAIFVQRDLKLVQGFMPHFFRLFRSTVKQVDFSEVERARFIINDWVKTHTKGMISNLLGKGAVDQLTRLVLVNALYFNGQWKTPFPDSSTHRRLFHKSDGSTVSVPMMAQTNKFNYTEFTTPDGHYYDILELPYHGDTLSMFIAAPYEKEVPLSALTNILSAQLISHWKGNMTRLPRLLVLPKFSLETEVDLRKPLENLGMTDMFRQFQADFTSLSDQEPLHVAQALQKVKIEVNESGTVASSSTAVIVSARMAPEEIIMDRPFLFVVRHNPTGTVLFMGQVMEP
test-summary: PAI chromogenic substrate assay (first S2251 assay, tPA/plasminogen system)
Format: biochemical
condition-set: Concentration 100 μm
Please respond with the number in % and leave the unit unwritten.

molecule | system | measurement-units | readout-number
COc1ccc(/C=c2\[nH]c(=O)/c(=C/c3ccc(O)cc3Cl)[nH]c2=O)cc1 [Compound 84] | PAI-1 (Homo sapiens) | % | 52
CCOc1ccc(/C=c2\[nH]c(=O)/c(=C/c3ccccc3)[nH]c2=O)cc1 [Compound 25] | PAI-1 (Homo sapiens) | % | 52
CC(=O)SCc1ccc(/C=c2\[nH]c(=O)/c(=C/c3ccccc3)[nH]c2=O)cc1 [Compound 76] | PAI-1 (Homo sapiens) | % | 66
COC(=O)CCCCOc1ccc(/C=c2\[nH]c(=O)/c(=C/c3ccccc3)[nH]c2=O)cc1 [Compound 96] | PAI-1 (Homo sapiens) | % | 77
CC(=O)Nc1ccc(/C=c2\[nH]c(=O)/c(=C/c3c(Cl)cccc3Cl)[nH]c2=O)cc1 [Compound 40] | PAI-1 (Homo sapiens) | % | 61

Attention now turns to another entry.
In: Inhibition of PAI-1 in the first S2251 chromogenic substrate assay for CC(=O)OCc1ccc(/C=c2\[nH]c(=O)/c(=C/c3ccccc3)[nH]c2=O)cc1 [Compound 43] ?
Out: 59

Data provenance is patent US5700804A.
